Hello, the source for this data is the Immune Epitope Database (IEDB), in case you need it.

- assay_system: HLA-B*18:01
- experiment_summary: IEDB peptide-MHC binding, purified MHC/competitive/radioactivity; filed as Kd, often an IC50 or EC50 that approximates it; bounds were set here for any values at or beyond the usual limits of such assays
- experimental_context: source organism: Mammarenavirus guanaritoense
experimental_endpoint: pKd
# pKd = -log10(concentration in molar units)

The recorded pKd for entry "PDFELLLSL" equals 6.15

====

- assay_system: HLA-A*02:03
- experiment_summary: IEDB peptide-MHC binding, purified MHC/competitive/fluorescence; filed as Kd, often an IC50 or EC50 that approximates it; bounds were set here for any values at or beyond the usual limits of such assays
- experimental_context: source organism: Cryptosporidium parvum Iowa II
pKd: −log10 of the molar value.
// pKd lookup, one value per entry

construct_sequence=ERTDLFFPV assay_system=HLA-A*02:03 experimental_endpoint=pKd result="≤ 4.70"

# context switch: different sequence, same pKd
The recorded pKd for entry "KLYLRPWWH" equals ≤ 4.70
